Reference source for all entries: patent US20240226228A1

System: red blood cells
Test: Hemolysis assay
Type: cell-based, Sprague-Dawley mouse
Where a SMILES comes first, the peptide text is derived from it. [ ]: non-standard residue; d: D form. Gly(N(CH2)2(3-indolyl)) = O=C(O)CNCCc1c[nH]c2ccccc12; Nspe = C[C@H](NCC(=O)O)c1ccccc1; Nlys = NCCCCNCC(=O)O
Hi there, I'd appreciate the recorded HC10 for every entry that follows.
Give the quantity in µM, number only.

Query: Query for red blood cells: what HC10 does the record show for C[C@@H](c1ccccc1)N(CC(=O)N(CCCCN)CC(=O)N(CC(=O)N(CC(=O)N(CCCCN)CC(=O)N(CC(=O)N(CC(=O)N(CCCCN)CC(=O)N(CC(=O)N(CC(=O)N(CCCCN)CC(=O)N(CCCCN)CC(N)=O)[C@@H](C)c1ccccc1)[C@@H](C)c1ccccc1)[C@@H](C)c1ccccc1)[C@@H](C)c1ccccc1)[C@@H](C)c1ccccc1)[C@@H](C)c1ccccc1)C(=O)CNCCc1c[nH]c2ccccc12 [Peptoid 64] (H-[Gly(N(CH2)2(3-indolyl))][Nspe][Nlys][Nspe][Nspe][Nlys][Nspe][Nspe][Nlys][Nspe][Nspe][Nlys][Nlys]-NH2) ?
Reply: 70.7

Query: Provide value of HC10 for this record tested with red blood cells: C[C@@H](c1ccccc1)N(CC(=O)N(CCCCN)CC(=O)N(CC(=O)N(CC(=O)N(CCCCN)CC(=O)N(CC(=O)N(CC(=O)N(CCCCN)CC(N)=O)[C@@H](C)c1ccccc1)[C@@H](C)c1ccccc1)[C@@H](C)c1ccccc1)[C@@H](C)c1ccccc1)C(=O)CN(C(=O)CN(CCCCN)C(=O)CN(CCc1c[nH]c2ccccc12)C(=O)CNCCc1c[nH]c2ccccc12)[C@@H](C)c1ccccc1 [Peptoid 37-2] (H-[Gly(N(CH2)2(3-indolyl))][Gly(N(CH2)2(3-indolyl))][Nlys][Nspe][Nspe][Nlys][Nspe][Nspe][Nlys][Nspe][Nspe][Nlys]-NH2)
Reply: 12.5

###

System: red blood cells
Assay: Hemolysis assay
Format: cell-based, Sprague-Dawley mouse
Procedure: To confirm cytotoxicity by the hemolytic activity of each peptoid synthesized in Example 1, hemolysis analysis was performed. […] A supernatant was obtained and transferred to a new 96-well plate at 150 μL, and absorbance was measured using a spectrophotometer at 540 nm. Percent hemolysis may be calculated by the following Equation 1, and the corresponding results are shown in Tables 11 to 13. % Hemolysis=(A−C)/(B−C)×100 [Equation 1] […]
Where a SMILES comes first, the peptide text is derived from it. [ ]: non-standard residue; d: D form. Gly(N(CH2)2(3-indolyl)) = O=C(O)CNCCc1c[nH]c2ccccc12; Nspe = C[C@H](NCC(=O)O)c1ccccc1; Nlys = NCCCCNCC(=O)O
Assay readout: HC10 (µM)
Kindly provide the numeric value in µM only, without the unit symbol.

Query: Need HC10 of C[C@@H](c1ccccc1)N(CC(=O)N(CCc1c[nH]c2ccccc12)CC(=O)N(CCCCN)CC(=O)N(CC(=O)N(CC(=O)N(CCCCN)CC(=O)N(CC(=O)N(CC(=O)N(CCCCN)CC(=O)N(CC(=O)N(CCc1c[nH]c2ccccc12)CC(N)=O)[C@@H](C)c1ccccc1)[C@@H](C)c1ccccc1)[C@@H](C)c1ccccc1)[C@@H](C)c1ccccc1)[C@@H](C)c1ccccc1)C(=O)CNCCCCN [Peptoid 16] (H-[Nlys][Nspe][Gly(N(CH2)2(3-indolyl))][Nlys][Nspe][Nspe][Nlys][Nspe][Nspe][Nlys][Nspe][Gly(N(CH2)2(3-indolyl))]-NH2) , thanks.
Reply: 13.8

Query: # lookup: HC10 of C[C@@H](c1ccccc1)N(CC(N)=O)C(=O)CN(C(=O)CN(CCCCN)C(=O)CN(C(=O)CN(C(=O)CN(CCCCN)C(=O)CN(C(=O)CN(C(=O)CN(CCCCN)C(=O)CN(CCc1c[nH]c2ccccc12)C(=O)CN(CCc1c[nH]c2ccccc12)C(=O)CNCCCCN)[C@@H](C)c1ccccc1)[C@@H](C)c1ccccc1)[C@@H](C)c1ccccc1)[C@@H](C)c1ccccc1)[C@@H](C)c1ccccc1 [Peptoid 14-1]
Reply: 19.2

Query: Name the reported HC10 value associated with the molecule `C[C@@H](c1ccccc1)N(CC(N)=O)C(=O)CN(C(=O)CN(CCCCN)C(=O)CN(C(=O)CN(C(=O)CN(CCCCN)C(=O)CN(C(=O)CN(C(=O)CN(CCCCN)C(=O)CN(Cc1ccccc1)C(=O)CN(Cc1ccccc1)C(=O)CNCCCCN)[C@@H](C)c1ccccc1)[C@@H](C)c1ccccc1)[C@@H](C)c1ccccc1)[C@@H](C)c1ccccc1)[C@@H](C)c1ccccc1`
Reply: 6.9

###

Test system: red blood cells
Experiment: Hemolysis assay
Type: cell-based, Sprague-Dawley mouse
Where a SMILES comes first, the peptide text is derived from it. [ ]: non-standard residue; d: D form. Gly(N(CH2)2(3-indolyl)) = O=C(O)CNCCc1c[nH]c2ccccc12; Nspe = C[C@H](NCC(=O)O)c1ccccc1; Nlys = NCCCCNCC(=O)O
Assay readout: HC10

Query: Form: Entry = C[C@@H](c1ccccc1)N(CC(N)=O)C(=O)CN(C(=O)CN(CCCCN)C(=O)CN(C(=O)CN(C(=O)CN(CCCCN)C(=O)CN(C(=O)CN(C(=O)CN(CCCCN)C(=O)CN(CCc1c[nH]c2ccccc12)C(=O)CN(C(=O)CNCCCCN)[C@@H](C)c1ccccc1)[C@@H](C)c1ccccc1)[C@@H](C)c1ccccc1)[C@@H](C)c1ccccc1)[C@@H](C)c1ccccc1)[C@@H](C)c1ccccc1 [Peptoid 10-1] | System = red blood cells | HC10 = ____
Reply: 15.3 µM

Query: Form entry - test system: red blood cells; read-out: HC10; compound: C[C@@H](c1ccccc1)N(CC(N)=O)C(=O)CN(CCCCN)C(=O)CN(CCCCN)C(=O)CN(C(=O)CN(C(=O)CN(CCCCN)C(=O)CN(C(=O)CN(C(=O)CN(CCCCN)C(=O)CN(Cc1ccccc1)C(=O)CN(Cc1ccccc1)C(=O)CNCCCCN)[C@@H](C)c1ccccc1)[C@@H](C)c1ccccc1)[C@@H](C)c1ccccc1)[C@@H](C)c1ccccc1 [Peptoid 47]
Reply: >100/>100 μM

Query: Query HC10 on red blood cells for C[C@@H](c1ccccc1)N(CC(=O)N(CCCCN)CC(=O)N(CCc1c[nH]c2ccccc12)CC(=O)N(CCc1c[nH]c2ccccc12)CC(N)=O)C(=O)CN(CCCCN)C(=O)CN(CCCCN)C(=O)CN(C(=O)CN(C(=O)CN(CCCCN)C(=O)CN(C(=O)CN(C(=O)CNCCCCN)[C@@H](C)c1ccccc1)[C@@H](C)c1ccccc1)[C@@H](C)c1ccccc1)[C@@H](C)c1ccccc1 [Peptoid 29-2] (H-[Nlys][Nspe][Nspe][Nlys][Nspe][Nspe][Nlys][Nlys][Nspe][Nlys][Gly(N(CH2)2(3-indolyl))][Gly(N(CH2)2(3-indolyl))]-NH2)
Reply: >100/>100 μM

###

Exercise: for every item that follows, state its recorded HC50.
Test system: red blood cells
Experiment: Hemolysis assay
Format: cell-based, Sprague-Dawley mouse
Description: To confirm cytotoxicity by the hemolytic activity of each peptoid synthesized in Example 1, hemolysis analysis was performed. […] A supernatant was obtained and transferred to a new 96-well plate at 150 μL, and absorbance was measured using a spectrophotometer at 540 nm. Percent hemolysis may be calculated by the following Equation 1, and the corresponding results are shown in Tables 11 to 13. % Hemolysis=(A−C)/(B−C)×100 [Equation 1] […]
Where a SMILES comes first, the peptide text is derived from it. [ ]: non-standard residue; d: D form. Gly(N(CH2)2(3-indolyl)) = O=C(O)CNCCc1c[nH]c2ccccc12; Nspe = C[C@H](NCC(=O)O)c1ccccc1; Nphe = O=C(O)CNCc1ccccc1; Nlys = NCCCCNCC(=O)O

Query: Give the measured HC50 of C[C@@H](c1ccccc1)N(CC(N)=O)C(=O)CN(C(=O)CN(CCCCN)C(=O)CN(C(=O)CN(C(=O)CN(CCCCN)C(=O)CN(C(=O)CN(C(=O)CN(CCCCN)C(=O)CN(CCc1c[nH]c2ccccc12)C(=O)CN(CCc1c[nH]c2ccccc12)C(=O)CNCCCCN)[C@@H](C)c1ccccc1)[C@@H](C)c1ccccc1)[C@@H](C)c1ccccc1)[C@@H](C)c1ccccc1)[C@@H](C)c1ccccc1 [Peptoid 14-2] .
Reply: 51.8 µM

Query: # query: HC50 of entry C[C@@H](c1ccccc1)N(CC(=O)N(CCCCN)CC(=O)N(CCc1c[nH]c2ccccc12)CC(=O)N(CCc1c[nH]c2ccccc12)CC(N)=O)C(=O)CN(CCCCN)C(=O)CN(CCCCN)C(=O)CN(C(=O)CN(C(=O)CN(CCCCN)C(=O)CN(Cc1ccccc1)C(=O)CN(Cc1ccccc1)C(=O)CNCCCCN)[C@@H](C)c1ccccc1)[C@@H](C)c1ccccc1 [Peptoid 41] (H-[Nlys][Nphe][Nphe][Nlys][Nspe][Nspe][Nlys][Nlys][Nspe][Nlys][Gly(N(CH2)2(3-indolyl))][Gly(N(CH2)2(3-indolyl))]-NH2)
Reply: >100/>100 μM

Query: I'd like to know its HC50. The compound in question is NCCCCNCC(=O)N(CC(=O)N(CC(=O)N(CCCCN)CC(=O)N(CC(=O)N(CC(=O)N(CCCCN)CC(=O)N(CC(=O)N(CC(=O)N(CCCCN)CC(=O)N(CC(=O)N(CC(N)=O)Cc1ccccc1)Cc1ccccc1)Cc1ccccc1)Cc1ccccc1)Cc1ccccc1)Cc1ccccc1)Cc1ccccc1)Cc1ccccc1 [Peptoid 2] (H-[Nlys][Nphe][Nphe][Nlys][Nphe][Nphe][Nlys][Nphe][Nphe][Nlys][Nphe][Nphe]-NH2)
Reply: > 100.0 µM

Query: Any idea what HC50 was measured for C[C@@H](c1ccccc1)N(CC(N)=O)C(=O)CN(CCCCN)C(=O)CN(C(=O)CN(C(=O)CN(CCCCN)C(=O)CN(C(=O)CN(CCCCN)C(=O)CN(CCCCN)C(=O)CN(C(=O)CN(C(=O)CN(CCCCN)C(=O)CN(C(=O)CNCCc1c[nH]c2ccccc12)[C@@H](C)c1ccccc1)[C@@H](C)c1ccccc1)[C@@H](C)c1ccccc1)[C@@H](C)c1ccccc1)[C@@H](C)c1ccccc1)[C@@H](C)c1ccccc1 [Peptoid 62] ?
Reply: > 100 µM

Query: Param item = C[C@@H](c1ccccc1)N(CC(N)=O)C(=O)CN(C(=O)CN(CCCCN)C(=O)CN(C(=O)CN(C(=O)CN(CCCCN)C(=O)CN(C(=O)CN(C(=O)CN(CCCCN)C(=O)CN(CCc1c[nH]c2ccccc12)C(=O)CN(CCc1c[nH]c2ccccc12)C(=O)CNCCCCN)[C@@H](C)c1ccccc1)[C@@H](C)c1ccccc1)[C@@H](C)c1ccccc1)[C@@H](C)c1ccccc1)[C@@H](C)c1ccccc1 [Peptoid 14-1] ; retrieve measured HC50.
Reply: 68.2 µM
